Values were extracted from patent US12162888B2.

This listing pairs compounds with measured IC50.
# MEASUREMENT TARGET: USP28 (His-tagged USP28-FL-mammalian) (Homo sapiens, UniProt Q96RU2)
# Construct: Expression of USP28 (1-1077)-TEV-6*His (pTT5 vector) was carried out in Expi293f cells; made in house; host or cells: Expi293F cells (pTT5 vector)
# ASSAY NAME: Ubiquitin-Rhodamine 110 Assay for USP28 Activity, Example A-1(a)
# Assay type: biochemical
# TEST SETTINGS: Ubiquitin-Rhodamine 110 assay, read-out: USP28 A-1(a) IC50 range

{"COMPOUND": "CO[C@@H]1CN(c2ccc3c(c2F)OC[C@H](NC(=O)c2sc4nc(C)ccc4c2N)C3)C[C@H]1N [Example 91]", "IC50": "200 to 2000 nM"}
{"COMPOUND": "CN[C@H]1CCN(c2ccc3c(c2)CC[C@H](NC(=O)c2sc4nc(C)cnc4c2N)C3)C1 (single isomer, unassigned) [Example 11-25]", "IC50": "50 to 200 nM"}
{"COMPOUND": "Cc1cnc2c(N)c(C(=O)N[C@H]3CCc4cc(N5CCNCC5)c(F)cc4C3)sc2n1 (single isomer, unassigned) [Example 21-12]", "IC50": "1 to 50 nM"}
{"COMPOUND": "Cc1cnc2c(N)c(C(=O)N[C@H]3CCc4cc(N5CCNCC5)cc(F)c4C3)sc2n1 (single isomer, unassigned) [Example 11-38]", "IC50": "50 to 200 nM"}
{"COMPOUND": "Cc1cnc2c(N)c(C(=O)N[C@@H]3CCc4cc(N5CCNCC5)cc(F)c4C3)sc2n1 (single isomer, unassigned) [Example 11-37]", "IC50": "200 to 2000 nM"}
{"COMPOUND": "Cc1ccc2c(N)c(C(=O)N[C@@H]3CCc4c(C#N)c(N5CCNCC5)cc(F)c4C3)sc2n1 (single isomer, unassigned) [Example 14-9]", "IC50": "200 to 2000 nM"}
{"COMPOUND": "Cc1ccc2c(N)c(C(=O)N[C@H]3CCc4cc(N5CCNCC5)ccc4C3)sc2n1 (single isomer, unassigned) [Example 11-21]", "IC50": "200 to 2000 nM"}
{"COMPOUND": "Cc1cnc2c(N)c(C(=O)N[C@H]3CCc4c(C#N)c(N5CCNCC5)cc(F)c4C3)sc2n1 (single isomer, unassigned) [Example 14-12]", "IC50": "200 to 2000 nM"}
{"COMPOUND": "Cc1ccc2c(N)c(C(=O)N[C@H]3CCc4cc(N5CC6CNCC(C5)O6)cc(F)c4C3)sc2n1 (single isomer, unassigned) [Example 11-39]", "IC50": "200 to 2000 nM"}
{"COMPOUND": "Cc1ccc2c(N)c(C(=O)N[C@H]3COc4cc(N5CC[C@@]6(C5)OCC[C@H]6N)ccc4C3)sc2n1 [Example 409]", "IC50": "1 to 50 nM"}
{"COMPOUND": "CN[C@H]1CN(c2ccc3c(n2)CC[C@H](NC(=O)c2sc4nc(C)ccc4c2N)C3)C[C@H]1CF [Example 441]", "IC50": "50 to 200 nM"}
{"COMPOUND": "Cc1ccc2c(N)c(C(=O)N[C@H]3CCc4nc(N5C[C@@H](N)[C@]6(CCOC6)C5)ccc4C3)sc2n1 [Example 438]", "IC50": "50 to 200 nM"}
{"COMPOUND": "Cc1cnc2c(N)c(C(=O)N[C@H]3CCc4cc(N5C[C@H]6C[C@@H]5CN6)ccc4C3)sc2n1 (single isomer, unassigned) [Example 11-31]", "IC50": "50 to 200 nM"}

----------
This listing pairs compounds with measured pIC50.
# MEASUREMENT TARGET: USP28 (His-tagged USP28-FL-mammalian) (Homo sapiens, UniProt Q96RU2)
# Construct: Expression of USP28 (1-1077)-TEV-6*His (pTT5 vector) was carried out in Expi293f cells; made in house; host or cells: Expi293F cells (pTT5 vector)
# Sequence (Q96RU2 1-1077): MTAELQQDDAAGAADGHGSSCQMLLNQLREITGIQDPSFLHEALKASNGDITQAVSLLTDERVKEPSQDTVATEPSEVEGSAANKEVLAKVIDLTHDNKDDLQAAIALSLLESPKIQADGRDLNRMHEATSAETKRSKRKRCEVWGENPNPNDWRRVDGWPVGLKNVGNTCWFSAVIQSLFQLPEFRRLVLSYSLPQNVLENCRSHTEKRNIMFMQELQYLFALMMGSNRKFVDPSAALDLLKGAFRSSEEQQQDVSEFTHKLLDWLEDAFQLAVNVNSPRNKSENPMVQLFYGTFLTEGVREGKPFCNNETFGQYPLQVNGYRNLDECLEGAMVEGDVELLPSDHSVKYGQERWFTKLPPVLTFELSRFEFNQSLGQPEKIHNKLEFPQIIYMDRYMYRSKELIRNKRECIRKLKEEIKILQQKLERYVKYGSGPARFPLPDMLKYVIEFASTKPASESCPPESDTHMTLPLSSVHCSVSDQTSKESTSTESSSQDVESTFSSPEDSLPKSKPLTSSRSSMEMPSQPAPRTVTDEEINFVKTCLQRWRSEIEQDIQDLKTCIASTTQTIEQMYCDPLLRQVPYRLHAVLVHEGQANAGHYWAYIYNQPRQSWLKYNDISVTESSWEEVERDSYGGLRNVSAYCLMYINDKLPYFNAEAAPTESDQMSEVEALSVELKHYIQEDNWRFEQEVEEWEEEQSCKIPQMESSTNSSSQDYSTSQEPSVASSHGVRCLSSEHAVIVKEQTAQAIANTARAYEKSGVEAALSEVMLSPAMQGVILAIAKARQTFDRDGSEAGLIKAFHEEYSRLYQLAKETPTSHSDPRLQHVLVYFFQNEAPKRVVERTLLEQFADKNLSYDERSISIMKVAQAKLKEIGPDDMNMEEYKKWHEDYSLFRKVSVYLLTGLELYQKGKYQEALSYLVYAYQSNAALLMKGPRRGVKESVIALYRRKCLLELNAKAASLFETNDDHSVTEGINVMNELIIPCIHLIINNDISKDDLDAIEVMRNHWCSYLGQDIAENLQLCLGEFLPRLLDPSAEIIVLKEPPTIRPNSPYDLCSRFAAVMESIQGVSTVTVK
# ASSAY NAME: Ubiquitin-Rhodamine 110 Assay for USP28 Activity, Example A-1(a)
# Format: biochemical
# TEST SETTINGS: biochemical IC50 range, Ubiquitin-Rhodamine 110 assay, read-out: USP28 A-1(a)
pIC50: −log10 of the molar value.
RECORDED METRIC: pIC50

{"COMPOUND": "CO[C@H]1CCCN(c2cc(F)c3c(c2)OC[C@H](NC(=O)c2sc4nc(C)ccc4c2N)C3)C[C@H]1N [Example 691]", "RESULT": "6.70 to 7.30"}
{"COMPOUND": "CCn1cc(Cl)c2cc(C(=O)N[C@H]3COc4cc(N5C[C@H](OC)[C@@H](N)C5)ccc4C3)nnc21 [Example 696]", "RESULT": "5.70 to 6.70"}
{"COMPOUND": "O=C(N[C@H]1COc2cc(N3CCNCC3)ccc2C1)c1ccc(NCc2ccc(Cl)cc2Cl)nc1 [Example 697]", "RESULT": "7.30 to 9.00"}
{"COMPOUND": "CCNC1CN(c2ccc3c(c2)OCC(NC(=O)c2sc4nc(C)ccc4c2N)C3)CC1COC (centres unmarked) [Example 668]", "RESULT": "7.30 to 9.00"}
{"COMPOUND": "Cc1ccc2c(N)c(C(=O)N[C@H]3COc4nc(N5C[C@H](N)C6(C5)OCCO6)ccc4C3)sc2n1 [Example 543]", "RESULT": "5.70 to 6.70"}
{"COMPOUND": "Cc1ccc2c(N)c(C(=O)N[C@H]3COc4cc(N5C[C@@H](N)[C@@]6(CCCCO6)C5)ccc4C3)sc2n1 [Example 653]", "RESULT": "7.30 to 9.00"}
{"COMPOUND": "Cc1ccc2c(N)c(C(=O)N[C@H]3COc4cc(N5C[C@H](N)[C@](C)(CF)C5)ccc4C3)sc2n1 [Example 658]", "RESULT": "7.30 to 9.00"}
{"COMPOUND": "CN[C@@H]1CN(c2ccc3c(c2)OC[C@H](NC(=O)c2sc4nc(C)ccc4c2N)C3)C[C@@H]1COC [Example 680]", "RESULT": "7.30 to 9.00"}
{"COMPOUND": "Cc1ccc2c(N)c(C(=O)NC3COc4cc(N5CC(N)C(COC(F)(F)F)C5)ccc4C3)sc2n1 (centres unmarked) [Example 672]", "RESULT": "6.70 to 7.30"}
{"COMPOUND": "CO[C@@H]1CCCN(c2cc(F)c3c(c2)OC[C@H](NC(=O)c2sc4nc(C)ccc4c2N)C3)C[C@H]1N [Example 689]", "RESULT": "7.30 to 9.00"}
{"COMPOUND": "Cc1ccc2c(N)c(C(=O)N[C@H]3COc4cc(N5C[C@@H]6CCNC[C@@H]65)cc(F)c4C3)sc2n1 [Example 665]", "RESULT": "7.30 to 9.00"}
{"COMPOUND": "O=C(N[C@H]1COc2cc(N3CCNCC3)ccc2C1)c1ccc(NCc2cccc(Cl)c2Cl)nc1 [Example 699]", "RESULT": "7.30 to 9.00"}
{"COMPOUND": "Cc1ccc2c(N)c(C(=O)N[C@H]3COc4cc(N5C[C@H](N)[C@@]6(C5)OCC[C@@H]6C)ccc4C3)sc2n1 [Example 612-1]", "RESULT": "7.30 to 9.00"}
{"COMPOUND": "CO[C@H]1CN(c2ccc3c(c2)CC[C@H](NC(=O)c2sc4nc(C)ccc4c2N)C3)C[C@H]1N [Example 144]", "RESULT": "6.70 to 7.30"}
{"COMPOUND": "Cc1ccc2c(N)c(C(=O)N[C@H]3COc4cc(N5C[C@@H](N)[C@@](C)(CF)C5)ccc4C3)sc2n1 [Example 660]", "RESULT": "7.30 to 9.00"}
{"COMPOUND": "Cc1ccc2c(N)c(C(=O)N[C@H]3COc4nc(N5C[C@@H](CF)[C@@H](N)C5)ccc4C3)sc2n1 [Example 539]", "RESULT": "6.70 to 7.30"}
{"COMPOUND": "Cc1ccc2c(N)c(C(=O)N[C@H]3COc4cc(OC[C@H]5CNCC5(F)F)ccc4C3)sc2n1 [Example 686]", "RESULT": "7.30 to 9.00"}
{"COMPOUND": "CO[C@@]12CCN[C@@H]1CN(c1ccc3c(c1)OC[C@H](NC(=O)c1sc4nc(C)ccc4c1N)C3)C2 [Example 667]", "RESULT": "7.30 to 9.00"}
{"COMPOUND": "CNc1ncc(C(=O)N[C@H]2COc3cc(N4CCNCC4)ccc3C2)c2[nH]ccc12 [Example 674]", "RESULT": "5.70 to 6.70"}
{"COMPOUND": "CO[C@@H]1CCCN(c2cc(F)c3c(c2)OC[C@H](NC(=O)c2sc4nc(C)ccc4c2N)C3)C[C@@H]1N [Example 692]", "RESULT": "7.30 to 9.00"}
{"COMPOUND": "Cc1ccc2c(N)c(C(=O)N[C@H]3COc4cc(N5C[C@@H](N)[C@]6(C5)OCC[C@H]6C)ccc4C3)sc2n1 (single isomer, unassigned) [Example 612-4]", "RESULT": "7.30 to 9.00"}
{"COMPOUND": "CN[C@H]1CN(c2ccc3c(c2)OC[C@H](NC(=O)c2sc4nc(C)ccc4c2N)C3)C[C@@H]1CF [Example 662]", "RESULT": "7.30 to 9.00"}
{"COMPOUND": "Cc1ccc2c(N)c(C(=O)N[C@H]3COc4cc(N5C[C@@H](N)[C@](C)(CF)C5)ccc4C3)sc2n1 [Example 661]", "RESULT": "7.30 to 9.00"}
{"COMPOUND": "Cc1ccc2c(N)c(C(=O)N[C@H]3COc4cc(N5C[C@H](N)[C@]6(CCOC6)C5)ccc4C3)sc2n1 [Example 656]", "RESULT": "7.30 to 9.00"}
{"COMPOUND": "Cc1ccc2c(N)c(C(=O)N[C@H]3CCc4cc(N5C[C@H](CF)[C@H](N)C5)ccc4C3)sc2n1 [Example 657]", "RESULT": "6.70 to 7.30"}
{"COMPOUND": "CCOc1ncc(C(=O)N[C@H]2COc3cc(N4CCNCC4)ccc3C2)c2[nH]ccc12 [Example 676]", "RESULT": "5.70 to 6.70"}
{"COMPOUND": "CN[C@@H]1CN(c2cc(F)c3c(c2)OC[C@H](NC(=O)c2sc4nc(C)ncc4c2N)C3)C[C@H]1COC [Example 695]", "RESULT": "5.70 to 6.70"}
{"COMPOUND": "CNc1ncc(C(=O)N[C@H]2COc3cc(N4CCNCC4)ccc3C2)c2c1CCCN2 [Example 677]", "RESULT": "5.70 to 6.70"}
{"COMPOUND": "Cc1ccc2c(N)c(C(=O)N[C@H]3COc4cc(N5C[C@H](N)C6(C5)OCCO6)ccc4C3)sc2n1 [Example 681]", "RESULT": "7.30 to 9.00"}
